# tested.target: His-tagged KRAS G12D protein (Homo sapiens, UniProt P01116, G12D)
# Sequence (P01116 1-188 isoform P01116-2 G12D): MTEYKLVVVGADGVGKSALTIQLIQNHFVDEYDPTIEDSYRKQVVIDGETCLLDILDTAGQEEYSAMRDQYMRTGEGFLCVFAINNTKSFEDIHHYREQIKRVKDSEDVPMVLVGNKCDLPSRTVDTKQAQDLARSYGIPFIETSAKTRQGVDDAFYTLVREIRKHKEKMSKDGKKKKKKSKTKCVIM
# assay.notes: KRAS G12D TR-FRET Assay
readout: IC50 (nM)
Use nM as the unit, but write only the number.

stdin: Entry C/C=C\c1c(Cl)cc2[nH]ncc2c1-c1c(F)cc2c(N3CCC[C@]4(CCO4)C3)nc(OC[C@@]34CCCN3C[C@H](F)C4)nc2c1F (single isomer, unassigned) [Example 113] , system His-tagged KRAS G12D protein (Homo sapiens, UniProt P01116, G12D): what IC50 was measured?
stdout: 3

stdin: Entry CCc1c(F)ccc2cc(N)cc(-c3c(F)cc4c(N5CCC[C@@](C)(O)C5)nc(OC[C@@]56CCCN5C[C@H](F)C6)nc4c3F)c12 (single isomer, unassigned) [Example 61] , system His-tagged KRAS G12D protein (Homo sapiens, UniProt P01116, G12D): what IC50 was measured?
stdout: 729

stdin: Entry CCc1c(F)ccc2cc(N)cc(-c3ccc4c(N5CCC[C@@](C)(O)C5)nc(OC[C@@]56CCCN5C[C@H](F)C6)nc4c3F)c12 [Example 74] , system His-tagged KRAS G12D protein (Homo sapiens, UniProt P01116, G12D): what IC50 was measured?
stdout: 117

stdin: Entry C/C=C\c1c(C)cc2[nH]ncc2c1-c1c(F)cc2c(N3CCC[C@](O)(CF)C3)nc(OC[C@@]34CCCN3C[C@H](F)C4)nc2c1F (single isomer, unassigned) [Example 102] , system His-tagged KRAS G12D protein (Homo sapiens, UniProt P01116, G12D): what IC50 was measured?
stdout: 4

stdin: Entry C/C=C\c1c(Cl)cc2[nH]ncc2c1-c1ccc2c(N3CCC[C@@](C)(O)C3)nc(OC[C@@]34CCCN3C[C@H](F)C4)nc2c1F [Example 108] , system His-tagged KRAS G12D protein (Homo sapiens, UniProt P01116, G12D): what IC50 was measured?
stdout: 4

stdin: Entry Cc1cc2[nH]ncc2c(-c2c(F)cc3c(N4CCC[C@](O)(CF)C4)nc(OC[C@@]45CCCN4C[C@H](F)C5)nc3c2F)c1C1CC1 (single isomer, unassigned) [Example 100] , system His-tagged KRAS G12D protein (Homo sapiens, UniProt P01116, G12D): what IC50 was measured?
stdout: 4

stdin: Entry CCc1c(F)ccc2cc(O)cc(-c3ccc4c(N5C[C@H](NC(=O)OC)CC(F)(F)C5)nc(OC[C@@]56CCCN5C[C@H](F)C6)nc4c3F)c12 [Example 5] , system His-tagged KRAS G12D protein (Homo sapiens, UniProt P01116, G12D): what IC50 was measured?
stdout: 3

stdin: Entry C/C=C\c1c(Cl)cc2[nH]ncc2c1-c1c(F)cc2c(N3CCOC[C@@](C)(O)C3)nc(OC[C@@]34CCCN3C[C@H](F)C4)nc2c1F [Example 103] , system His-tagged KRAS G12D protein (Homo sapiens, UniProt P01116, G12D): what IC50 was measured?
stdout: 7

stdin: Entry C/C=C\c1c(C)cc2[nH]ncc2c1-c1c(F)cc2c(N3CCOC[C@@](C)(O)C3)nc(OC[C@@]34CCCN3C[C@H](F)C4)nc2c1F (single isomer, unassigned) [Example 104] , system His-tagged KRAS G12D protein (Homo sapiens, UniProt P01116, G12D): what IC50 was measured?
stdout: 2

stdin: Entry CCc1c(F)ccc2cc(O)cc(-c3c(F)cc4c(N5CCCC6(CCC(=O)O6)C5)nc(OC[C@@]56CCCN5C[C@H](F)C6)nc4c3F)c12 (some centres unmarked) [Example 92] , system His-tagged KRAS G12D protein (Homo sapiens, UniProt P01116, G12D): what IC50 was measured?
stdout: 7

stdin: Entry CCc1c(F)ccc2cc(O)cc(-c3c(F)cc4c(N5CCCC6(CNC(=O)O6)C5)nc(OC[C@@]56CCCN5C[C@H](F)C6)nc4c3F)c12 (single isomer, unassigned) [Example 56] , system His-tagged KRAS G12D protein (Homo sapiens, UniProt P01116, G12D): what IC50 was measured?
stdout: 24

Source: patent US20250179077A1
